// provenance: paper PMC5540273

Form field: %Inh (one value per entry).
System: ICK
CONDITION_DETAILS: concentration: 1 μM,replicates: in singlicate; n = 1;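 also: KINOMEscan kinase panel screen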
Write the answer as a number in %, unit excluded.

Sample records with %Inh:
COMPOUND	SYSTEM	MEASURED_QUANTITY	DISPLAY_UNIT	MEAS_VALUE
COC(=O)c1cccc(NC(=O)NC2CCN(c3ccnc(Nc4cc(OC)c(OC)c(OC)c4)n3)C2)c1 (stereo not shown)	ICK	%Inh	%	0
COc1cc(Nc2nccc(N3CCC(NC(=O)c4cccc(C#N)c4)C3)n2)cc(OC)c1OC (stereo not shown)	ICK	%Inh	%	0
O=C(NOCC1CC1)c1cc(Br)c(F)c(F)c1Nc1ccc(I)cc1Cl	ICK	%Inh	%	0
CC(=O)c1c(-c2ccncc2)[nH]c(-c2ccncc2)c1C	ICK	%Inh	%	18
C[C@@H](Oc1cc(-n2cnc3cc(-c4ccncc4)ccc32)sc1C(N)=O)c1ccccc1Cl	ICK	%Inh	%	4

Fill blank: measured %Inh of the compound O=C(Nc1cccc(Oc2ccc3nccn3n2)c1)Nc1cccc(C(F)(F)F)c1 is ____.
0

Fill blank: measured %Inh of the compound COc1cc2c(Nc3ccc(NC(=O)c4ccccc4)cc3)ncnc2cc1OCCCN1CCOCC1 is ____.
2

Fill blank: measured %Inh of the compound C[C@@H]1CNc2c(sc3ccc4nc(-c5ccncc5)ccc4c23)C(=O)N1 is ____.
0

###

Form field: %Inh (one value per entry).
System: VEGFR2
Construct: gene KDR
CONDITION_DETAILS: concentration: 1 μM,replicates: in singlicate; n = 1
Write the answer as a number in %, unit excluded.

Sample records with %Inh:
O=C(Nc1ccc(Oc2ccc3nc(NC(=O)C4CC4)cn3n2)c(F)c1)c1cccn(-c2ccccc2)c1=O 98.2
CCN1CCN(CCCC(=O)Nc2n[nH]c3nc(-c4ccc(O)cc4)c(Br)cc23)CC1 0
Cl.Nc1n[nH]c2cc(-c3ccccn3)ccc12 0
CC(=O)Nc1ccc(-c2cc3ncnc(SCC(=O)O)c3s2)cc1 27
C[C@@H]1CCN(C(=O)N2CCCC2)C[C@@H]1N(C)c1ncnc2[nH]ccc12 49
CS(=O)(=O)c1cccc(CNc2nc(Nc3ccc4c(c3)[C@@H]3C[C@@H]4CNC3=O)ncc2C(F)(F)F)c1 98.1
Cc1ccc2c(-c3ccnc(Nc4ccc(C(F)(F)F)cc4)n3)cnn2n1 0

Lab note: next molecule to report on.
Fill blank: measured %Inh of the molecule COc1cc2c(Nc3ccc(NC(=O)c4ccccc4)cc3)ncnc2cc1OCCCN1CCOCC1 is ____.
6

###

Test system: LIMK1
CONDITION_DETAILS: concentration: 1 μM,replicates: in singlicate; n = 1
Labelling: %Inh reported below 8% becomes 1; at or above becomes -1.

The examples below pair each entry with its known result.
COMPOUND	SYSTEM	LABEL_CLASS
CN(c1ccc2c(c1)nc(NCc1ccc(F)cc1)n2C)c1ccnc(Nc2ccc(CS(C)(=O)=O)cc2)n1.Cl	LIMK1	-1
CC(C)c1nc(-c2cccc(NS(=O)(=O)c3ccccc3)c2)c(-c2ccnc(Nc3ccc4c(c3)CN(C)CC4)n2)s1	LIMK1	-1
Cc1n[nH]c2cc(Nc3ccnc(Nc4cccc(CN5CCOCC5)c4)n3)ccc12	LIMK1	-1
COc1cccc(CNC(=O)NC2CCN(c3ccnc(Nc4cc(OC)c(OC)c(OC)c4)n3)C2)c1 (stereo not drawn)	LIMK1	-1
O=C(Nc1ccccc1)c1cccc(Oc2ccc3nccn3n2)c1	LIMK1	-1

Report whether reported %Inh is lower than 8% (strictly) for O=C(Nc1cccc(Oc2ccc3nccn3n2)c1)Nc1cccc(C(F)(F)F)c1
1

Report whether reported %Inh is lower than 8% (strictly) for CN(c1ccccc1CNc1nc(Nc2ccc3c(c2)CC(=O)N3)ncc1C(F)(F)F)S(C)(=O)=O
1

Report whether reported %Inh is lower than 8% (strictly) for CC(C)S(=O)(=O)N1CCN(Cc2ccc3c(c2)nc(NC(=O)c2ccsc2)n3C[C@H](O)c2ccccc2)CC1
1

Report whether reported %Inh is lower than 8% (strictly) for O=C1NCCc2[nH]c(-c3ccncc3)cc21
1

Report whether reported %Inh is lower than 8% (strictly) for Cc1cccc(-c2nc(Nc3ccncc3)c3sccc3n2)n1
-1

Report whether reported %Inh is lower than 8% (strictly) for Cn1ccc2ncnc(Oc3ccc(NC(=O)Nc4cccc(C(F)(F)F)c4)c(Cl)c3)c21
1
